Numbers sourced from PubChem BioAssay (NCI).

- Tested on: NCI-H226 lung
- experiment-summary: NCI tumour cell line growth inhibition, 48 h
observation-type: TGI

>  <molecule>
CSCCC(N)C(=O)NCCNc1ccc(NCCNC(=O)C(N)CCSC)c2c1C(=O)c1ccccc1C2=O (stereo not given)

>  <assay-value>
7.46 µM

$$$$
>  <molecule>
CCOP(=O)(/C=C\n1cc(C)c(=O)[nH]c1=O)OCC

>  <assay-value>
> 100 µM

$$$$
>  <molecule>
CC1CCCC2(CC[N+](C)(CCC[N+](C)(C)C)CC2)C1 (stereo not given)

>  <assay-value>
> 100 µM

$$$$
>  <molecule>
Cc1ccccc1C1OC(=O)c2ccc3ccccc3c21 (stereo not given)

>  <assay-value>
12.2 µM

$$$$

Fill in the blank: the reported TGI of Cc1cc(C)nc(SC2=C(Nc3ccc(C)c(Cl)c3)C(=O)N(Cc3ccccc3)C2=O)n1 is ____.
> 160 µM

Entry Cc1cc([N+](=O)[O-])c(NS(=O)(=O)c2cccc(C(=O)O)c2)cc1-c1cccnc1 : reported TGI = ?
> 100 µM

Value lookup for TGI; key = ClCCCc1ccccc1C1=NCCc2ccccc21
> 100 µM

State the recorded TGI for this entry: OC(CCNC12CC3CC(CC(C3)C1)C2)c1ccccc1 (stereo not given)
> 100 µM

State the recorded TGI for this entry: C/C(=N/NC(=S)N1CCCCC1)c1ccccc1O
> 31.6 µM

====

- Tested on: HOP-62 NSCLC
- experiment-summary: NCI tumour cell line growth inhibition, 48 h; in the data active means GI50 below about 0.43 µM; inactive means the rest
Response enum: active, inactive

Check out these entries, answers already filled in.
>  <compound>
CCCCCCC[CH2][Sn]([CH2]CCCCCCC)([O]c1cccc2cccnc12)[O]c1cccc2cccnc12

>  <group-label>
inactive

$$$$
>  <compound>
O=C(Nc1cccc(-n2cc(-c3ccncc3)c(-c3ccc(Cl)c(O)c3)n2)c1)Nc1cc(C(F)(F)F)cc(C(F)(F)F)c1

>  <group-label>
inactive

$$$$
>  <compound>
COC1CC(O[C@H]2CC[C@@]3(C)[C@H](CC[C@@H]4[C@@H]3CC[C@]3(C)[C@@H](C5=CC(=O)OC5)[C@@H](OC(C)=O)C[C@]43O)C2)OC(C)C1O (some centres undefined)

>  <group-label>
active

$$$$

Attention now turns to another entry.
Write down the call the test reported for this compound. Item: Cc1cc(C)nc(SC2=C(Nc3ccc(C)c(Cl)c3)C(=O)N(Cc3ccccc3)C2=O)n1
inactive

====

Recorded measurements of TGI, one per entry
- Tested on: NCI-H460 lung
- experiment-summary: NCI tumour cell line growth inhibition, 48 h

Example results:
>  <molecule>
Cc1cc(NC(=O)NC(=O)c2ccccc2NC(=O)C(C)N)ccc1Oc1ncc(Br)cn1 (centres undefined)

>  <tgt>
NCI-H460 lung

>  <TGI>
19.2 µM

$$$$
>  <molecule>
O=C(O)CC[C@H](NC(=O)c1ccc(-n2nc3ccc(O)cc3nc2=O)cc1)C(=O)O

>  <tgt>
NCI-H460 lung

>  <TGI>
> 100 µM

$$$$
>  <molecule>
CC(=O)N1CC(C)(C)c2c(C)c(O)c(C)c(C)c21

>  <tgt>
NCI-H460 lung

>  <TGI>
> 100 µM

$$$$
>  <molecule>
O=C(N/N=C/C=C/c1ccc([N+](=O)[O-])o1)c1cc2ccccc2cc1O

>  <tgt>
NCI-H460 lung

>  <TGI>
6.9 µM

$$$$
>  <molecule>
O=c1cc(N2CCCC2)[nH]c(=O)n1Cc1ccccc1

>  <tgt>
NCI-H460 lung

>  <TGI>
> 100 µM

$$$$

Report TGI for O=S(Nc1ccccc1)c1ccc(N2CCOCC2)cc1 (centres undefined) please.
> 100 µM

What value of measured TGI is listed for CC(C)CCCC(C)[C@H]1CCC2[C@@H]3CCC4Cc5nc6c(nc5C[C@]4(C)C3CC[C@@]21C)CC1CC[C@@H]2C(CC[C@@]3(C)C2CC[C@@H]3C(C)CCCC(C)C)[C@@]1(C)C6 (some centres undefined) ?
> 100 µM

Need TGI, item Cn1ncnc1[C@H]1c2n[nH]c(=O)c3cc(F)cc(c23)N[C@@H]1c1ccc(F)cc1
> 100 µM

Recorded TGI for COc1cc2c[n+](C)c3c4cc(OC)c(OC(C)C)cc4ccc3c2cc1OC , please?
> 100 µM
